Experiment: Half life for compound in rat was determined
Format: ADME
Details: in vivo

MOL	half-life
CC(=O)NCn1cc(-c2ccc(C3=CCN(C(=O)CO)CC3)cc2)c(=O)o1	36 min

---

Reported log10 of MIC by item:
System: Staphylococcus aureus
Experiment: Minimum inhibition concentration against Staphylococcus aureus strains in presence of 8% calf serum
Format: functional
PROPERTY_LABEL: log10 of MIC (log10 of the value in µg/mL)

MOL	log10 of MIC
COc1ccc(-c2ccc(-c3cn(CNC(C)=O)oc3=O)cc2)c(OC)c1	0.30
CC(=O)NCn1cc(-c2ccc(-c3ccc(Cl)cc3)cc2)c(=O)o1	-1.22
CC(=O)NCn1cc(-c2ccc(-c3ncn(C)n3)cc2)c(=O)o1	0.60
CC(=O)NCn1cc(-c2ccc(-c3cccs3)cc2)c(=O)o1	-0.60
CC(=O)NCn1cc(-c2ccc(C3=CCNCC3)cc2)c(=O)o1	0.90
CC(=O)NCn1cc(-c2ccc(-c3ccc(C(=O)O)cc3)cc2)c(=O)o1	0.00
CC(=O)NCn1cc(-c2ccc(-c3ccc(Cl)s3)cc2)c(=O)o1	-1.22
CC(=O)NCn1cc(-c2ccc(-c3c(C)noc3C)cc2)c(=O)o1	0.30
CC(=O)NCn1cc(-c2ccc(-c3ccc(C(F)(F)F)cc3)cc2)c(=O)o1	-0.60
COc1ccccc1-c1ccc(-c2cn(CNC(C)=O)oc2=O)cc1	-0.30
